For each entry below, report its binding signal value.
biological target: OsWRKY34 (Oryza sativa, UniProt Q0JBA9 1-250); assay: protein-binding microarray (RPBM); PBS, 2% BSA, 51.3 ng/ul salmon testes DNA, 50 uM zinc acetate, 200 nM TF, 25 C, 1 h; high values mean tight binding; conditions: protein: recombinant; tags: N-terminal polyhistidine and DsRed monomer fusion (pET32a); label: CyDye5-dUTP incorporated in the synthesized complementary strand; 3' TTTTT single-stranded linker to array surface; dsDNA, one strand shown
Sequence (Q0JBA9 entry or part of it): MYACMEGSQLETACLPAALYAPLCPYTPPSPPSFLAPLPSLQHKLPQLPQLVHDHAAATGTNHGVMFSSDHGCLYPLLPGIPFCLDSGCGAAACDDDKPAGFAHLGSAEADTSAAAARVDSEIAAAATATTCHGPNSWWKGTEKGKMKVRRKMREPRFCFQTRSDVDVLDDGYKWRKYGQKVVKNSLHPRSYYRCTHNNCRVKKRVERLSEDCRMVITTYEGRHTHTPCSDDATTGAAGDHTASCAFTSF
In all, about 68,000 sequences were measured (“fluorescence intensity (a.u.)”: median about 9,100, highest 2% from about 16,000 on). For the sample, the highest values were picked, then their nearest neighbours and some sequences at random.

CAGTTCTTCGTTCTTGTCTTTACTCTCATGATTTTCTCTTCGGAGTCACCTAGTGCAG : 10900 fluorescence intensity (a.u.)
CCCATCAACCGCCAAAGACTTCCCGCGCGCGTCTACATATCGGAGTCACCTAGTGCAG : 8450 fluorescence intensity (a.u.)
GGGAGGGAGAGGAGGCGGAGGAGGAGGAGGTGGAGGAGTACGGAGTCACCTAGTGCAG : 8610 fluorescence intensity (a.u.)
ATGTTGTTTGTTATGATGCTGTTCTTTTGTTGTTGTTTACCGGAGTCACCTAGTGCAG : 11700 fluorescence intensity (a.u.)
GCTCTCTTCTCGCCGCCTCGGCCTCGCCGCCGTGGCCGCCCGGAGTCACCTAGTGCAG : 9500 fluorescence intensity (a.u.)

Look at each sequence and report its binding signal.
1. GTGGAGTGCGGTGGACGGAGCGGCGGGGCGGGGCGGTCAGCGGAGTCACCTAGTGCAG
2. TTTTTGACTTTGACTTTTAATAGTAAAAAAATCAATTATGCGGAGTCACCTAGTGCAG

1. 16700 fluorescence intensity (a.u.)
2. 9900 fluorescence intensity (a.u.)

----------
For each entry below, report its binding signal value.
target: OsWRKY34 (Oryza sativa, UniProt Q0JBA9 1-250); assay: protein-binding microarray (RPBM); PBS, 2% BSA, 51.3 ng/ul salmon testes DNA, 50 uM zinc acetate, 200 nM TF, 25 C, 1 h; high values mean tight binding; conditions: protein: recombinant; tags: N-terminal polyhistidine and DsRed monomer fusion (pET32a); label: CyDye5-dUTP incorporated in the synthesized complementary strand; 3' TTTTT single-stranded linker to array surface; dsDNA, one strand shown
Whole data set: some 68,000 sequences, median “fluorescence intensity (a.u.)” near 9,100, cut for the highest 2% near 16,000. The sample as a whole holds a higher share of the highest values than the screen did.

Below: 8 sequences and their reported binding signal.
TTCTCTTTTATCTGTTTGCTTCCTATAAATTCTACGCGATCGGAGTCACCTAGTGCAG : 8480 fluorescence intensity (a.u.)
CAACGAAAATACTAACAACATGCACCTGGCCGCGTTGACCCGGAGTCACCTAGTGCAG : 13900 fluorescence intensity (a.u.)
TTATACTCCCTCCGTTTCGAAATGTTTGACGCCGTTGACTCGGAGTCACCTAGTGCAG : 11400 fluorescence intensity (a.u.)
GATCCTCTGTTTTATCTACGCGTTCCTATCAAATTCCTTTCGGAGTCACCTAGTGCAG : 16800 fluorescence intensity (a.u.)
GCCCGGCCCAGTAGATACCACCACCTCACACTCCATTCGCCGGAGTCACCTAGTGCAG : 9860 fluorescence intensity (a.u.)
GCCCCGAGCCGAGACCGCTGGATAATGCAGCGCTTCTTACCGGAGTCACCTAGTGCAG : 20100 fluorescence intensity (a.u.)
TCTTGATTTTTGCATTAGTAGTAGTTGCGTCTTATATTTTCGGAGTCACCTAGTGCAG : 12100 fluorescence intensity (a.u.)
ATATTCCCTCCGTTTTGAAATGTTTGACGCCGTTGACTTTCGGAGTCACCTAGTGCAG : 17000 fluorescence intensity (a.u.)

Look at each sequence and report its binding signal.
1. TTGACGCCGTTGACTTTTTAATACATGTTTGACCATTCGTCGGAGTCACCTAGTGCAG
2. TATTTTCCGGATCGAATTGCCACGTAAGGGCCACATCAGTCGGAGTCACCTAGTGCAG
3. AGGGAGGGAGGGAGGAGGAAGGAGGACTGACATGTGGGCCCGGAGTCACCTAGTGCAG
4. GAGACACCGACGCGTCACACCACCACGTCCGTTTCCGTACCGGAGTCACCTAGTGCAG
5. CACACACACTCCACTACTCCACTGCACTGCAGTCTCTCTCCGGAGTCACCTAGTGCAG
6. GTTGCATTTGCCGCTGCGACACGGACCCCGCCTTAATAACCGGAGTCACCTAGTGCAG
7. ATACAACTTCGTCTGGCGCCCTCAATCGATCTCGCTCTATCGGAGTCACCTAGTGCAG

1: 44300 fluorescence intensity (a.u.); 2: 8510 fluorescence intensity (a.u.); 3: 9250 fluorescence intensity (a.u.); 4: 8300 fluorescence intensity (a.u.); 5: 10100 fluorescence intensity (a.u.); 6: 9020 fluorescence intensity (a.u.); 7: 9870 fluorescence intensity (a.u.)

Look at each sequence and report its binding signal.
1. GACACATGAACTTTCAATTTTTCTATCACATCGTTCTAATCGGAGTCACCTAGTGCAG
2. CCATTGTTAGGGTTAAGTCTTATTTCACCACATCGTTTTTCGGAGTCACCTAGTGCAG
3. ATTGTTCGTCGAACTTTATCATATTATTAATCATCATATACGGAGTCACCTAGTGCAG
4. GTAGGGGTGGTGGATTTTTTTTTATTTGCTGAGATGATTTCGGAGTCACCTAGTGCAG

["8150 fluorescence intensity (a.u.)", "8740 fluorescence intensity (a.u.)", "8960 fluorescence intensity (a.u.)", "20600 fluorescence intensity (a.u.)"]

----------
molecular target: OsWRKY34 (Oryza sativa, UniProt Q0JBA9 1-250); experiment: protein-binding microarray (RPBM); PBS, 2% BSA, 51.3 ng/ul salmon testes DNA, 50 uM zinc acetate, 200 nM TF, 25 C, 1 h; high values mean tight binding; settings: protein: recombinant; tags: N-terminal polyhistidine and DsRed monomer fusion (pET32a); label: CyDye5-dUTP incorporated in the synthesized complementary strand; 3' TTTTT single-stranded linker to array surface; dsDNA, one strand shown
Whole data set: some 68,000 sequences, median “fluorescence intensity (a.u.)” near 9,100, cut for the highest 2% near 16,000. The entries come from a sample that favours the highest values as a whole.
Observable: binding signal

Below: 2 sequences and their reported binding signal.
CAGCACCAACGTTCTCTTCGGCCGATTCGGCGATTGCATCCGGAGTCACCTAGTGCAG : 8930 fluorescence intensity (a.u.)
TGACGCCGTTGACTTTTTCTCACATGTTTGACTATTCGTCCGGAGTCACCTAGTGCAG : 49100 fluorescence intensity (a.u.)

Look at each sequence and report its binding signal.
1. CACCTGACCCATTCTTGCTTACCTTATATTTAGCATACTCCGGAGTCACCTAGTGCAG
2. TTTTCTCATATGTTTGACCATTCGTCTTATTCAAAAAATTCGGAGTCACCTAGTGCAG
3. TCGCTGCTCTGCCCTTTTCCCTTTTTTTTTCTTTCTTCATCGGAGTCACCTAGTGCAG
4. TAAACTTGCTCTGATGCGCCCACACGGGGCCACGGCGCGCCGGAGTCACCTAGTGCAG
5. AAGAAGGGGAAGGGAGTTTCTATGGTTCTTGCTGGTGCCGCGGAGTCACCTAGTGCAG
6. CACCGTTAATTTTTTCTCACATGTTTGACCATTCATCTTACGGAGTCACCTAGTGCAG
7. CTCCCTCCGTTTCAAAATGTTTGACACCGTTGACTTTTTACGGAGTCACCTAGTGCAG
8. CCACAGCGCCTCCACTGCCTGCAGGGACGCCACCGCTACCCGGAGTCACCTAGTGCAG

["8160 fluorescence intensity (a.u.)", "9000 fluorescence intensity (a.u.)", "10200 fluorescence intensity (a.u.)", "9010 fluorescence intensity (a.u.)", "8750 fluorescence intensity (a.u.)", "14400 fluorescence intensity (a.u.)", "28300 fluorescence intensity (a.u.)", "8450 fluorescence intensity (a.u.)"]

Look at each sequence and report its binding signal.
1. CCTGCCATGTCATGTTTGTACCTAGATACCAGGTATGACGCGGAGTCACCTAGTGCAG
2. TGACGCCGTTAACTTTTTCTCACATATTTGACTATTTGTCCGGAGTCACCTAGTGCAG
3. GCATAACTAATGGTCTGTTTACTTTGATGGCATTTTCAATCGGAGTCACCTAGTGCAG

8960 fluorescence intensity (a.u.)
10900 fluorescence intensity (a.u.)
9570 fluorescence intensity (a.u.)

Look at each sequence and report its binding signal.
1. GCGTGGTTGATTTTTAGTCTTGTCGACTTCGACTTTAAGCCGGAGTCACCTAGTGCAG
2. TACTACTCCCTCCGTTTCAAAATGTTTGACACCGTTGACTCGGAGTCACCTAGTGCAG
3. CACGTCACCTGCATATGCCCTTCTTCCTCGCCGGCCACACCGGAGTCACCTAGTGCAG
4. TTTCGTCAGCTGATCGTATATTGACCTTTTCTGTCTCTGTCGGAGTCACCTAGTGCAG

["9120 fluorescence intensity (a.u.)", "13100 fluorescence intensity (a.u.)", "11000 fluorescence intensity (a.u.)", "10500 fluorescence intensity (a.u.)"]

Look at each sequence and report its binding signal.
1. GACACTAGGACAGTACGTAGCTACCTCTCCACTGCTCTGCCGGAGTCACCTAGTGCAG
2. ACTACAGTCCCTCGCCATGCATGCGCCGTCAGATGTCCAACGGAGTCACCTAGTGCAG

["8730 fluorescence intensity (a.u.)", "11500 fluorescence intensity (a.u.)"]
